PROCEDURE_SUMMARY: in vivo pharmacokinetic study in SD rats
MEASUREMENT_SETUP: male, rat, plasma, 1 mg/kg, PO
READOUT_LABEL: Cmax (ng/mL)
Give just the numeric value; ng/mL need not be written.

// solved cases for Cmax follow
Name the recorded Cmax of the item CN(C)C(=O)c1nccc(Nc2c(N[C@@H](c3nc(CF)ccc3F)C3(C)CCCC3)c(=O)c2=O)c1O [compound 094] in your answer. 208

Fill in Cmax for record CN(C)C(=O)c1nccc(Nc2c(N[C@@H](c3nc(C(F)F)ccc3F)C3(C)CCCC3)c(=O)c2=O)c1O [compound 109] 264

More entries:
In one line, give reported Cmax of the entry CN(C)C(=O)c1nccc(Nc2c(N[C@@H](c3nc(Cl)ccc3F)[C@@]3(C)CC(F)(F)CO3)c(=O)c2=O)c1O [068B] . 291

Kindly indicate its recorded Cmax. Item: CN(C)C(=O)c1nccc(Nc2c(N[C@@H](c3nc(Cl)ccc3F)C3(C)CCCC3)c(=O)c2=O)c1O [compound 053] 380

###

SYSTEM_TESTED: human CXCR2 (Homo sapiens, UniProt P25025)
Sequence (P25025 whole entry): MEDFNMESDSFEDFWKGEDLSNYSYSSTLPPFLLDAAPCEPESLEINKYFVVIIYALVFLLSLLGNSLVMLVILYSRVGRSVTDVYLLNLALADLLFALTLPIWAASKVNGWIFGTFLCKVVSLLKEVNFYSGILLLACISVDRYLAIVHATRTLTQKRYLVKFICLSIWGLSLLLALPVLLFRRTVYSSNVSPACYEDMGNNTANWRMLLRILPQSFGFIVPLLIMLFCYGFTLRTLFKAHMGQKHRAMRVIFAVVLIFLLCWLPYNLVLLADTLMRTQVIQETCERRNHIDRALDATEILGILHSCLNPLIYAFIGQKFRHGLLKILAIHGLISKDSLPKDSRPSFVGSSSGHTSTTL
PROCEDURE_SUMMARY: human CXCR2 calcium flux activity (FLIPR, HEK293 cells stably expressing human CXCR2, IL-8 stimulation)
MEASUREMENT_SETUP: HEK293 cells stably expressing human CXCR2, EC80 human IL-8; read-out: CXCR2 inhibitory activity, IC50
READOUT_LABEL: log10(IC50) (log10 of the value in nM)
A difference of one corresponds to tenfold IC50; all values are log10 with IC50 in nM.

Given CN(C)C(=O)c1nccc(Nc2c(N[C@@H](c3cccc(C(F)F)n3)C3(C)CCCC3)c(=O)c2=O)c1O , respond with its log10(IC50). 2.87

Note log10(IC50) for the compound shown: Cc1ccc(F)nc1[C@H](Nc1c(Nc2ccnc(C(=O)N(C)C)c2O)c(=O)c1=O)C1(C)CCCC1 3.83

Read off the recorded log10(IC50) for CN(C)C(=O)c1nccc(Nc2c(N[C@@H](C#CC3CCC3)C3(C)CCCC3)c(=O)c2=O)c1O 2.58

Output measured log10(IC50) for this item: CN(C)C(=O)c1nccc(Nc2c(N[C@@H](c3ncccc3Cl)C3(C)CCCC3)c(=O)c2=O)c1O 3.26

Entry CN(C)C(=O)c1nccc(Nc2c(N[C@@H](c3ncc(F)cc3F)C3(C)CCCC3)c(=O)c2=O)c1O needs its log10(IC50) filled in; supply it. 3.39

Give the reported log10(IC50) for this compound. CC#C[C@H](Nc1c(Nc2ccc(Cl)c(C(=O)N(C)C)c2O)c(=O)c1=O)C1(C)CCCC1 3.16

Complete the entry with log10(IC50) for CN(C)C(=O)c1nccc(Nc2c(N[C@@H](c3ncccc3CF)C3(C)CCCC3)c(=O)c2=O)c1O 4.44

Specify reported log10(IC50) for the compound shown: Cc1cccnc1[C@H](Nc1c(Nc2ccc(Cl)c(C(=O)N(C)C)c2O)c(=O)c1=O)C1(C)CCCC1 4.18

Please give measured log10(IC50) of the following entry: CN(C)C(=O)c1nccc(Nc2c(N[C@@H](c3nc(C(F)F)ccc3F)C3(C)CCCC3)c(=O)c2=O)c1O 2.12

Respond only with log10(IC50) recorded for CN(C)C(=O)c1nccc(Nc2c(N[C@@H](c3nc(F)ccc3Cl)C3(C)CCCC3)c(=O)c2=O)c1O 2.90

Consider the compound Cc1cc(F)cnc1[C@H](Nc1c(Nc2ccnc(C(=O)N(C)C(C)C)c2O)c(=O)c1=O)C1(C)CCCC1 and give its recorded log10(IC50). 4.68

Note down log10(IC50) recorded for CN(C)C(=O)c1nccc(Nc2c(N[C@@H](c3nc(CF)ccc3F)C3(C)CCCC3)c(=O)c2=O)c1O 2.28

Answer with the recorded log10(IC50) of CN(C)C(=O)c1nccc(Nc2c(N[C@@H](c3nc(F)ccc3F)C3(C)CCCC3)c(=O)c2=O)c1O only. 2.31

For the compound CN(C)C(=O)c1nccc(Nc2c(N[C@@H](c3cccc(Cl)n3)C3(C)CCCC3)c(=O)c2=O)c1O , give its reported log10(IC50). 3.34

Return value of log10(IC50) for input Cc1cccnc1[C@H](Nc1c(Nc2ccnc(C(=O)N(C)C)c2O)c(=O)c1=O)C1(C)CCCC1 , no commentary. 4.96

###

PROCEDURE_SUMMARY: in vivo pharmacokinetic study in SD rats
MEASUREMENT_SETUP: rat, in vivo, 1 mg/kg, IV
Procedure: 2.2.1 Rats: SD rats, SPF grade, 6 rats per compound, male, body weight range 180-200 g. 2.2.2 Housing conditions: The animals were housed in an SPF-grade animal facility with free access to food and water, three per cage, under a 12/12-hour light/dark cycle (7:00 am/7:00 pm), at a temperature of 23 ± 3°C. […] The data were analyzed using WinNonlin via a non-compartmental model to obtain PK parameters (Cmax, AUC0-last, AUCinf, T1/2, etc., selected based on different routes of administration). […]
READOUT_LABEL: AUC(0-t) (ng·h/mL)
Your answer should be a plain number; it is taken to be in ng·h/mL.

Please give measured AUC(0-t) of the following entry: Cc1cccnc1C(Nc1c(Nc2ccnc(C(=O)N(C)C)c2O)c(=O)c1=O)C1(C)CCC(F)(F)C1 (single isomer, unassigned) [125B] 1500

Input CN(C)C(=O)c1nccc(Nc2c(NC(c3nc(C(F)(F)F)ccc3F)C3(C)CC(F)(F)CO3)c(=O)c2=O)c1O (stereo not drawn) [compound 098] , output reported AUC(0-t). 630

# next molecule below
Return value of AUC(0-t) for input CN(C)C(=O)c1nccc(Nc2c(NC(C#CC3CCC3)C3(C)CC(F)(F)CO3)c(=O)c2=O)c1O (stereo not drawn) [compound 110] , no commentary. 739

###

PROCEDURE_SUMMARY: in vitro liver microsome metabolic stability, mouse
Type: in vitro ADME
MEASUREMENT_SETUP: Mouse liver microsomes, 37°C
Entry flag: 1 if Liver microsome T1-2 (min) Mouse reaches 600 min; -1 if it does not.

Some solved entries appear below for comparison.
Determine whether this compound has Liver microsome T1-2 (min) Mouse no lower than 600 min: Cc1cccnc1[C@@H](Nc1c(Nc2ccnc(C(=O)N(C)C)c2O)c(=O)c1=O)[C@@]1(C)CCC(F)(F)C1 [125C] -1

Is Liver microsome T1-2 (min) Mouse at least 600 min? Consider CN(C)C(=O)c1nccc(Nc2c(NC(c3ncccn3)C3(C)CCCC3)c(=O)c2=O)c1O (racemic) 1

Decide: is the reported value of Liver microsome T1-2 (min) Mouse for CN(C)C(=O)c1nccc(Nc2c(N[C@@H](c3ncc(F)cc3F)C3(C)CCCC3)c(=O)c2=O)c1O equal to or greater than 600 min? -1

Turning now to a further compound:
hey, is Liver microsome T1-2 (min) Mouse for this one >= 600 min? CN(C)C(=O)c1nccc(Nc2c(NC(c3nc(F)ccc3F)C3(C)CC(F)(F)CO3)c(=O)c2=O)c1O (centres unmarked) -1

###

Form field: Liver microsome T1-2 (min) Rat (one value per entry).
PROCEDURE_SUMMARY: in vitro liver microsome metabolic stability, rat
Format: in vitro ADME
MEASUREMENT_SETUP: Rat liver microsomes, 37°C
// return numeric value only (unit: min, not printed)

Example entries begin here.
Quote Liver microsome T1-2 (min) Rat reported for CN(C)C(=O)c1nccc(Nc2c(N[C@@H](c3cc(F)cc(F)n3)C3(C)CCCC3)c(=O)c2=O)c1O please. 116.86

Read the entry Cc1cccnc1[C@H](Nc1c(Nc2ccnc(C(=O)N(C)C)c2O)c(=O)c1=O)C1(C)CCCO1 (stereo partly shown) and write its reported Liver microsome T1-2 (min) Rat. 290.01

Fill in Liver microsome T1-2 (min) Rat for record Cc1cc(F)cnc1[C@H](Nc1c(Nc2ccnc(C(=O)N(C)C)c2O)c(=O)c1=O)C1(C)CCCC1 39.70

Others:
Give the value of Liver microsome T1-2 (min) Rat reported for the following: CN(C)C(=O)c1nccc(Nc2c(N[C@@H](c3cccc(CF)n3)C3(C)CCCC3)c(=O)c2=O)c1O 124.28

Please report the measured Liver microsome T1-2 (min) Rat for CN(C)C(=O)c1nccc(Nc2c(N[C@@H](c3ncc(F)cc3F)C3(C)CCCC3)c(=O)c2=O)c1O 62.30

Let me know recorded Liver microsome T1-2 (min) Rat for Cc1cccnc1[C@H](Nc1c(Nc2ccc(Cl)c(C(=O)N(C)C)c2O)c(=O)c1=O)C1(C)CC(F)CO1 (stereo partly shown) , thanks. 403.32

Specify measured Liver microsome T1-2 (min) Rat for Cc1cccnc1C(Nc1c(Nc2ccc(F)c(C(=O)N(C)C)c2O)c(=O)c1=O)[C@]1(C)CC(F)(F)CO1 (stereo partly shown) [087A] . 120.46
